Record form. Attribute: IC50. Fill in for each entry.
biological target: OX2 (Homo sapiens, UniProt O43614); test: Measurement of orexin receptor-binding ability ([125I]-OX-A, cell membranes, OX2); set-up: expressed in transfected cells; host or cells: CHO cells (membrane preparation); details: OX2 (IC50) nM, membranes of recombinant CHO cells expressing OX2, 0.2 nM [125I]-OX-A
Sequence (O43614 whole entry): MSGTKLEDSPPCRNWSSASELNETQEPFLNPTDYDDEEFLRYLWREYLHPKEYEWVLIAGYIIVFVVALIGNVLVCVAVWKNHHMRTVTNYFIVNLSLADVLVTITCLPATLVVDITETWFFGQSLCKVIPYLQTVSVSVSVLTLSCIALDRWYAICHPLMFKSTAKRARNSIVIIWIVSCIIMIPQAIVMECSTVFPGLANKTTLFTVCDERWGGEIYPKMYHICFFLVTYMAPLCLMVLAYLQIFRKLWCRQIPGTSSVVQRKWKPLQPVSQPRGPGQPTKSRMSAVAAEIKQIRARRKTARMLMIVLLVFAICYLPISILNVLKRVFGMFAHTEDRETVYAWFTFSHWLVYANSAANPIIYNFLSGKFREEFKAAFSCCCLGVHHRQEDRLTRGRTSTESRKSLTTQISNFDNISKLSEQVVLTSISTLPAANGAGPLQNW
Numbers only, in nM.

Could I get IC50 for every one of these entries?
1. Cc1ncc(OC[C@@]2(c3ccc(Br)cc3)C[C@H]2C(=O)Nc2ccc(Cl)cn2)c(C)n1
2. Cc1ncc(OCC2(c3cccc(C(F)(F)F)c3)CC2C(=O)Nc2ccc(Cl)cn2)c(C)n1 (stereo not shown)
3. Cc1ncc(OC[C@@]2(c3cccc(F)c3)C[C@H]2C(=O)Nc2cccc(F)c2)c(C)n1
4. CCc1nc(C)ncc1OC[C@@]1(c2cccc(F)c2)C[C@H]1C(=O)Nc1ccc(F)cn1

1. 10
2. 10
3. 14
4. 2.2

====

Record form. Attribute: pIC50. Fill in for each entry.
biological target: OX1 (Homo sapiens); assay: Measurement of orexin receptor-binding ability ([125I]-OX-A, cell membranes, OX1); parameters: expressed in transfected cells; host or cells: CHO cells (membrane preparation)
Sequence (O43613 whole entry): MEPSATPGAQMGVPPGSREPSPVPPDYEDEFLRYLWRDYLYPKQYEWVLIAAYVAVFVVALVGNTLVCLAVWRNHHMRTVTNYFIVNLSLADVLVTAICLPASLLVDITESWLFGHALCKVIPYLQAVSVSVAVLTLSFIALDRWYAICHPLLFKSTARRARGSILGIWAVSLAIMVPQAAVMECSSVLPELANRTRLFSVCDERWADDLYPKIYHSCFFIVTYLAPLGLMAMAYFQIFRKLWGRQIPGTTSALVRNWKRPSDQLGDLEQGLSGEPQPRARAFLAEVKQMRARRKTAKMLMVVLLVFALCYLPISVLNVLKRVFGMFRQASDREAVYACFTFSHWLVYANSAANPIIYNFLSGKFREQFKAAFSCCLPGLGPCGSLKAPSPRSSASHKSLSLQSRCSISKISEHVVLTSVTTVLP
One number for each entry, as −log10 of the molar value.

In the examples that follow, each entry is paired with its recorded pIC50.
Cc1ncc(OC[C@@]2(c3ccccc3)C[C@H]2C(=O)Nc2cccc(C#N)c2)c(C)n1    7.27
CCc1ncc(OC[C@@]2(c3ccccc3)C[C@H]2C(=O)Nc2ccc(F)cn2)c(C)n1    6.65
COCc1nc(C)ncc1OC[C@@]1(c2cccc(F)c2)C[C@H]1C(=O)Nc1ccc(F)cn1    9.00

Could I get pIC50 for every one of these entries?
1. COCCc1nc(C)ncc1OC[C@@]1(c2cccc(F)c2)C[C@H]1C(=O)Nc1cc(C)c(F)cn1
2. Cc1ncc(OCC2(c3cccc(Cl)c3)CC2C(=O)Nc2ccc(C#N)cn2)c(C)n1 (stereo not drawn)
3. Cc1ncc(OC[C@@]2(c3ccccc3)C[C@H]2C(=O)Nc2cc(F)cc(F)n2)c(C)n1
4. Cc1ncc(OC[C@@]2(c3cccc(F)c3)C[C@H]2C(=O)Nc2ccc(F)cn2)c(C)[n+]1[O-]

7.72
7.38
6.31
7.11

Could I get pIC50 for every one of these entries?
1. Cc1ncc(OC[C@@]2(c3cccc(F)c3)C[C@H]2C(=O)Nc2ccc(Br)cn2)c(C)n1
2. COCc1nc(C)ncc1OC[C@@]1(c2cccc(F)c2)C[C@H]1C(=O)Nc1ccccn1
3. Cc1ncc(OC[C@@]2(c3ccc(F)c(F)c3)C[C@H]2C(=O)Nc2ccc(Cl)cn2)c(C)n1
4. Cc1ncc(OC[C@@]2(c3ccccc3)C[C@H]2C(=O)Nc2cccc(F)n2)c(C)n1
5. Cc1ncc(OC[C@@]2(c3ccc(Br)cc3)C[C@H]2C(=O)Nc2ccc(Cl)cn2)c(C)n1
6. Cc1ncc(OCC2(c3cccc(Cl)c3)CC2C(=O)Nc2ccc(Cl)cn2)c(C)n1 (stereo not drawn)

[7.62, 7.44, 7.82, 6.85, 7.16, 8.00]

Could I get pIC50 for every one of these entries?
1. Cc1cccc(NC(=O)[C@@H]2C[C@@]2(COc2cnc(C)nc2C)c2ccccc2)n1
2. Cc1cccc(C2(COc3cnc(C)nc3C)CC2C(=O)Nc2ccc(F)cn2)c1 (stereo not drawn)
3. Cc1ncc(OC[C@@]2(c3ccc(F)cc3)C[C@H]2C(=O)Nc2ccc(F)cn2)c(C)n1
4. Cc1nc(C)c(OC[C@@]2(c3cccc(F)c3)C[C@H]2C(=O)Nc2ccc(F)cn2)c(=O)[nH]1
5. Cc1ncc(OC[C@@]2(c3ccc(F)c(F)c3)C[C@H]2C(=O)Nc2ccccn2)c(C)n1
6. Cc1ncc(OC[C@@]2(c3ccc(F)cc3)C[C@H]2C(=O)Nc2ccc(F)cc2)c(C)n1
7. Cc1ncc(OC[C@@]2(c3ccc(Cl)cc3)C[C@H]2C(=O)Nc2ccc(F)cn2)c(C)n1

1. 6.15
2. 6.86
3. 7.40
4. 6.91
5. 7.30
6. 6.71
7. 7.30

Sourced from patent US8268848B2
